# test_name: Mouse Growth Regulant Tests (12-day weight gain over controls, compound in diet)
# Format: in vivo, CFI female mice
# details: Mus musculus, feed or water, 288 h, Table VI; 200 ppm in diet
measurement_name: change in vivo at 200 ppm (%)
The reply should be a number in %, with the unit left off.

Return reported change in vivo at 200 ppm; argument: CCCCNC(=O)NC1CCCc2sccc21 (stereo not shown) [Table VI: O,H,H,H,H,n-butyl]
25

Return reported change in vivo at 200 ppm; argument: CCNC(=O)NC1CCCc2sccc21 (stereo not shown) [Table VI: O,H,H,H,H,C2H5]
87.6

Return reported change in vivo at 200 ppm; argument: NC(=O)NC1CCCc2sccc21 (stereo not shown) [4,5,6,7-tetrahydrobenzo[b]thien-4-ylurea]
134

Return reported change in vivo at 200 ppm; argument: O=C(NC(=O)C(Cl)(Cl)Cl)NC1CCCc2sccc21 (stereo not shown)
37.4
